Consider the following binders and their measured pKd readings.
- system_under_test: African swine fever virus major capsid protein p72 (p72 capsomer, trimer) (African swine fever virus, UniProt P22776)
- protocol_notes: SPR
pKd: −log10 of the molar value.
measured_attribute: pKd

{"binder": "porcine antibody C9 (class III) (Fab, V domains shown) VH: EVKLVESGGGLVQPGGSLRLSCVGSGFTFSSYEINWVRQAPGKGLEWLAVVSKIGDRTYYADSVRGRLTISRDNSQNTAYLQMNSLRTEDTARYYCVRAWCASTCLPGDIMDLWGPGVGVVVSS VL: QTVIQEPAMSVSPGGTVTLTCAWSSGSVTTSNYPSWFQQTPGQPPRQLIYNTNSRPTGVPRRFSGKISGNKAALTITGAQAEDEADYFCGLYKRSANNIFGGGTHLTVL", "assay_result": 5.83}
{"binder": "porcine antibody B1 (class I) (Fab, V domains shown) VH: EVKLVESGGGLVQPGGSLKLSCVGSGSTFSSDAVSWVRQAPGKGLEWLAGIDGDGGGGSTYYADSVKGRFTISRDNSQKTAYLQMNSLRTDDTARYYCAECPMVLLAKCSMEFWGPGVEVVVS VL: DIVLTQTPRSLSVSPGEPASISCRSSQSLEEYGKNWLSWYQQKPGQSPRLLIYQATNRASWVPERFSGSGSGTDFTLKISRVEAEDVGVYYCFQDLQPPNGFGAGTKLELK", "assay_result": 8.51}
{"binder": "porcine antibody H3 (class III) (Fab, V domains shown) VH: QEKLVESGGGLVQPGGSLILSCVGSGFTFITYEINWVRQAPGKGLEWLAVVSKIGDRTYYAHSVRGRLTISRDNSQNTAYLQMNSLRTEDTARYYCVRAWCATTCLPGDIMDLWGPGVGVIV VL: TVIHEPAMSLSPGGTDTLTCAFSSGSITNNNYPSWFQQTPRQPPRLLIYNTNNRPTGVPSRFSGAISGNKAALTITGAQANDEADYFCTLYISIADVIFGGGTHLTVL", "assay_result": 6.00}
